I'd appreciate it if you could supply signal change in competition ELISA (% reduction in OD) values for the items below.
Target desc: pre-existing anti-scFv903 antibodies in human serum H125 (human)
Method: competition ADA bridging ELISA
Hi! Could you send only the number? It should be in %, unit omitted.

q: Item scFv 961 (scFv) scFv: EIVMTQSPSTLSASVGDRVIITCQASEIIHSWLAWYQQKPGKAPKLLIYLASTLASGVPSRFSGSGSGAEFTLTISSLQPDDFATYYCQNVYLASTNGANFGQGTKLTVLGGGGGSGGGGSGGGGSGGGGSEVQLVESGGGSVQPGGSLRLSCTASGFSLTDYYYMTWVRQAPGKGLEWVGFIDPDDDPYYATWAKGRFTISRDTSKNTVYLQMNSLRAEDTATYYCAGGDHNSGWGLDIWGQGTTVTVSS has what recorded signal change in competition ELISA (% reduction in OD)?
a: 3

q: Item scFv105 (scFv) scFv: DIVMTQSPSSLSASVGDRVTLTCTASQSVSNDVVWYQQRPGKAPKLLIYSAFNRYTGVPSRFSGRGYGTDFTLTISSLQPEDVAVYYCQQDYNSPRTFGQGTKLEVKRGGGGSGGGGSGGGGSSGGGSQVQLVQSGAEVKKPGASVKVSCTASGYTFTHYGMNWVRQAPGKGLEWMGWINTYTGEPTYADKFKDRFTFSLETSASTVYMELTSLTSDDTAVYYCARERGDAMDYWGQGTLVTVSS has what recorded signal change in competition ELISA (% reduction in OD)?
a: -55

q: Item scFv 791 (scFv) scFv: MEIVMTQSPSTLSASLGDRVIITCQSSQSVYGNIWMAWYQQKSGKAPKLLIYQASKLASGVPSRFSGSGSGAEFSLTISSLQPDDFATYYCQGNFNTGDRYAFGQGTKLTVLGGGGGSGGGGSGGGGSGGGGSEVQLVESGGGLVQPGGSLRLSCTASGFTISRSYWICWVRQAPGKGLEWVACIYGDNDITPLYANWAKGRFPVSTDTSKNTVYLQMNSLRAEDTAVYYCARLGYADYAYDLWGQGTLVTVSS has what recorded signal change in competition ELISA (% reduction in OD)?
a: -97

q: Item scFv 903 (scFv) scFv: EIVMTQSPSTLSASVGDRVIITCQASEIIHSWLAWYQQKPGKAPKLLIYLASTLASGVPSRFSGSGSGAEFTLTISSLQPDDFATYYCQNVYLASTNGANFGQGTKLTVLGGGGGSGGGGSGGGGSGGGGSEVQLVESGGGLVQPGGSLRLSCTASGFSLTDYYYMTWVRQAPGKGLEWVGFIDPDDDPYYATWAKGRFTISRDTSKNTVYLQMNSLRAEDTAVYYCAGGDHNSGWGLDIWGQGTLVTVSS has what recorded signal change in competition ELISA (% reduction in OD)?
a: -98
